Reference source: patent US20100260765A1

# assayed_target: human KDR on cells (human, UniProt P35968 20-1356)
# Sequence (P35968 20-1356): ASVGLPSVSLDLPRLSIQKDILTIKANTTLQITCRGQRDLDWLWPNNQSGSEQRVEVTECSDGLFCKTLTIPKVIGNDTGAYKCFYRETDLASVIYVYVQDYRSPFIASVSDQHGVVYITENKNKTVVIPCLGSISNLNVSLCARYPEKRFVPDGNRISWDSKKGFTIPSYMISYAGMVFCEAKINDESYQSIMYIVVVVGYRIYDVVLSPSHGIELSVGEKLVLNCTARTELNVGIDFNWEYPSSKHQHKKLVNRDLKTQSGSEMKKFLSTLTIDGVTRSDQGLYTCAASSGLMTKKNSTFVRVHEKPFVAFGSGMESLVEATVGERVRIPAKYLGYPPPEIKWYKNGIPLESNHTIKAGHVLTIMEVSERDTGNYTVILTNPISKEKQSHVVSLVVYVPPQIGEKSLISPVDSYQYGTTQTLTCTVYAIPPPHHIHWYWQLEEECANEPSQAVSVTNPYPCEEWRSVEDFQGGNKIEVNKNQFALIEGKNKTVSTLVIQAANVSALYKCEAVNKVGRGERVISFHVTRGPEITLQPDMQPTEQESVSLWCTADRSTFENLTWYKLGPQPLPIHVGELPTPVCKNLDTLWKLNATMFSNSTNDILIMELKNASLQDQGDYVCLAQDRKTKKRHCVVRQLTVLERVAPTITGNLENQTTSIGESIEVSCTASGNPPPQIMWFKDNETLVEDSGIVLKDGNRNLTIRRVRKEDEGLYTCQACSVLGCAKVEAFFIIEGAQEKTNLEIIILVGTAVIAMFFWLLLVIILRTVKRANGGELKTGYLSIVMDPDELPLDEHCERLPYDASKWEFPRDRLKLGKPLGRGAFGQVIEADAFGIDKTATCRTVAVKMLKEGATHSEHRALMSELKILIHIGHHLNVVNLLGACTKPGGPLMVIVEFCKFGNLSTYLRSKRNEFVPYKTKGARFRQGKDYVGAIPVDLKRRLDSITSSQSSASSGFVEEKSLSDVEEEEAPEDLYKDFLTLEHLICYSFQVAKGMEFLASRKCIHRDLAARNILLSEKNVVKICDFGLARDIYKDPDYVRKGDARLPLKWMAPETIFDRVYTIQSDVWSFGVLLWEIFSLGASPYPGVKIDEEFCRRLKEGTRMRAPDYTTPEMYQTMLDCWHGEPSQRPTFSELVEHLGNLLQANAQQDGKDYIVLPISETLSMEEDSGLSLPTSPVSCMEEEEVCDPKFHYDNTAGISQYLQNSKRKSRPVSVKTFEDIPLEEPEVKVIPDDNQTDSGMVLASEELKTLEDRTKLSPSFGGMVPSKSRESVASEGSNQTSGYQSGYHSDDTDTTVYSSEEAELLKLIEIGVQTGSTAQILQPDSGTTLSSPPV
# assay_method_text: cell-based or functional assay
parameter: % Inhibition (N = 1) of VEGF-C-mediated KDR activity, antibody 10 nM

INSERT INTO measurements (binder, measured) VALUES
  ('31E11 (antibody, V domains shown) VH: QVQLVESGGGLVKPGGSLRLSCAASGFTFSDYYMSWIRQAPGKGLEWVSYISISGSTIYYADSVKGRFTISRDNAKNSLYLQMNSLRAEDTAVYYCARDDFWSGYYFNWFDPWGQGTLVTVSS VL: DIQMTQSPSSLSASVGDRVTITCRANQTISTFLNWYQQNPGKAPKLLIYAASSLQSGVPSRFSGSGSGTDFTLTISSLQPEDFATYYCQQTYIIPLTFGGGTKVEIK', '81%'),
  ('22B8 (antibody, V domains shown) VH: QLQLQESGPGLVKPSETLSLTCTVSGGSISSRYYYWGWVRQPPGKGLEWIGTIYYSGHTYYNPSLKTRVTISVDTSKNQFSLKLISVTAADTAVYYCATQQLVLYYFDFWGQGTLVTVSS VL: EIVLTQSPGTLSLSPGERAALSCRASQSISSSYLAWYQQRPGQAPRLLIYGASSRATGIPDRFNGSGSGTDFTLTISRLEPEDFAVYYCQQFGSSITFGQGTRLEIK', '74%'),
  ('33E1 (antibody, V domains shown) VH: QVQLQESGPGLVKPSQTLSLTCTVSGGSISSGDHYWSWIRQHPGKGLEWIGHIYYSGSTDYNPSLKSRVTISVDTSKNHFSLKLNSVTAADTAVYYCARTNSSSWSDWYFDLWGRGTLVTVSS VL: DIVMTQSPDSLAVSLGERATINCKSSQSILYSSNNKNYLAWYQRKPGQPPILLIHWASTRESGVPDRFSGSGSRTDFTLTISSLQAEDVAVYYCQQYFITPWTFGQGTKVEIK', '75%');
